Data provenance is patent US20030186967A1.

compounds and their reported pIC50
- target: Vitronectin receptor αVβ3 (Homo sapiens, UniProt P05106+P06756)
- Sequence (P06756 31-889 limits assumed): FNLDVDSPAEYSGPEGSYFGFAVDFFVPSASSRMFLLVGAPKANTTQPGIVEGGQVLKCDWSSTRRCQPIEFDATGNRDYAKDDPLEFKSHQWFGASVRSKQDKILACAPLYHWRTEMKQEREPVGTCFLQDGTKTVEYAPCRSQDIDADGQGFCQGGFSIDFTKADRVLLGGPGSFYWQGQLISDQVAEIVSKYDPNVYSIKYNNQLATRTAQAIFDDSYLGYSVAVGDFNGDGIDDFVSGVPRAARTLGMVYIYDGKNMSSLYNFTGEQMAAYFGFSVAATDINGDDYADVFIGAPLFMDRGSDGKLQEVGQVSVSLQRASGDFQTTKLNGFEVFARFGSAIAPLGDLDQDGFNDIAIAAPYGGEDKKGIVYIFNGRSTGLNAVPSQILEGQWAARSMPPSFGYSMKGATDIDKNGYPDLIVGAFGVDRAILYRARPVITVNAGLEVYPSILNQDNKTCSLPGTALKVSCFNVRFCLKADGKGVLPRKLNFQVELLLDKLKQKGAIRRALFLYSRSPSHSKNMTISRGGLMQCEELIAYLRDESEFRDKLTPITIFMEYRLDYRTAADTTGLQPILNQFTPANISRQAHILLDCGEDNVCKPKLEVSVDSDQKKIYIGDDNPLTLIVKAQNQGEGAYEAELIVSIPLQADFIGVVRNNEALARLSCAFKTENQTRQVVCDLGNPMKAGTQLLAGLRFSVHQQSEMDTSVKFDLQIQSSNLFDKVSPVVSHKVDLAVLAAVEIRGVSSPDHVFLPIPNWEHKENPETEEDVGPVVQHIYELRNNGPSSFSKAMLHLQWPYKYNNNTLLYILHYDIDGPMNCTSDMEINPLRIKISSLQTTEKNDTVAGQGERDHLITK
- Sequence (P06756 891-1048 partner limits assumed): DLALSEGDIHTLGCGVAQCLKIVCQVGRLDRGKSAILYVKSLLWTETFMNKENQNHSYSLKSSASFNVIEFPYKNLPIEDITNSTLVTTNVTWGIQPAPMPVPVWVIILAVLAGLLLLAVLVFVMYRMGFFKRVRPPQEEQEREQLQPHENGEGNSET
- Sequence (P05106 27-788): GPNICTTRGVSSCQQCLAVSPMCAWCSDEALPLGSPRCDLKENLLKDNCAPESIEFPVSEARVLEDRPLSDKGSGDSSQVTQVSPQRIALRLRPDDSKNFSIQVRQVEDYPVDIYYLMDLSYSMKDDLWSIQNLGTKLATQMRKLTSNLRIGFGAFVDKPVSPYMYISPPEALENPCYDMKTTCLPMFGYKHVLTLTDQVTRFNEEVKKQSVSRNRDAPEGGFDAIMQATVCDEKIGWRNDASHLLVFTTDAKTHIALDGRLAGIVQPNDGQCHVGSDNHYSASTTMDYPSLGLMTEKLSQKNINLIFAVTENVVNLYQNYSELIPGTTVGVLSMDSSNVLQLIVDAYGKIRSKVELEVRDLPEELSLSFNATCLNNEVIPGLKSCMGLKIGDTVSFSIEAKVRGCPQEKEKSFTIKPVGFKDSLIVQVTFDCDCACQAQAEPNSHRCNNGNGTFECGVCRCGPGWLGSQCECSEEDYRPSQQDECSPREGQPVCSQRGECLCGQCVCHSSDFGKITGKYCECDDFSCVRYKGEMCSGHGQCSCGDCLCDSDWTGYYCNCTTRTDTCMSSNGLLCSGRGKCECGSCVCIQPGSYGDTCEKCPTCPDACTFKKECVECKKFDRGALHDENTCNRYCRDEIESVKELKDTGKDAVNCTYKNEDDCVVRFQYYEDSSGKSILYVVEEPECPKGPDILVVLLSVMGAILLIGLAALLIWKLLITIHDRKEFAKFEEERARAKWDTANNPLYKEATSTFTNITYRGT
- test_summary: Vitronectin Receptor αVβ3 Binding Assay
- experimental_parameters: read-out: VnR (IC50μM)
pIC50: −log10 of the molar value.

{"compound": "COC(=O)N[C@@H](CNC(=O)c1ccc(OCCNC(=N)N)cc1O)C(=O)O [Example 158]", "result_modifier": "=", "pIC50": 5.34}
{"compound": "O=C(N[C@@H](CNC(=O)c1ccc(OCCNC2=NCCN2)cc1O)C(=O)O)OCc1ccccc1 [Example 96]", "result_modifier": "=", "pIC50": 6.92}
{"compound": "O=C(N[C@@H](CNC(=O)c1ccc(OCCNC2=NCCCN2)cc1O)C(=O)O)OCc1ccccc1 [Example 14]", "result_modifier": "=", "pIC50": 7.35}
{"compound": "Cc1ccccc1NC(=O)N[C@@H](CNC(=O)c1ccc(OCCNC2=NCCCN2)cc1O)C(=O)O [Example 24]", "result_modifier": "=", "pIC50": 5.83}
{"compound": "CCCCCCCCNC(=O)N[C@@H](CNC(=O)c1ccc(OCCNC2=NCCN2)cc1O)C(=O)O [Example 110]", "result_modifier": "=", "pIC50": 6.26}
{"compound": "N=C(N)NCCOc1ccc(C(=O)NC[C@H](NC(=O)C2CCCCC2)C(=O)O)c(O)c1 [Example 198]", "result_modifier": "<", "pIC50": 6.00}
{"compound": "O=C(Nc1ccccc1Cl)N[C@@H](CNC(=O)c1ccc(OCCNc2ncccn2)cc1O)C(=O)O [Example 80]", "result_modifier": "<", "pIC50": 6.00}
{"compound": "COc1ccc(NC(=O)N[C@@H](CNC(=O)c2ccc(OCCNC(=N)N)cc2O)C(=O)O)cc1 [Example 188]", "result_modifier": "=", "pIC50": 4.92}

###

- target: Vitronectin receptor αVβ3 (Homo sapiens, UniProt P05106+P06756)
- test_summary: Vitronectin Receptor αVβ3 Binding Assay
- experimental_parameters: read-out: VnR (IC50μM)
Counter-ions that a name gives are not always drawn.
property_name: log10(IC50) (log10 of the value in µM)

{"compound": "NS(=O)(=O)c1ccc(CNC(=O)NCCOc2ccc(C(=O)NC[C@H](NC(=O)OCc3ccccc3)C(=O)O)c(O)c2)cc1 [Example 265]", "log10(IC50)": 1.11}
{"compound": "N=C(N)NCCOc1ccc(C(=O)NC[C@H](NC(=O)Nc2ccc(F)cc2)C(=O)O)c(O)c1 [Example 181]", "log10(IC50)": 1.29}
{"compound": "C=CCCOC(=O)N[C@@H](CNC(=O)c1ccc(OCCNc2ncccn2)cc1O)C(=O)O [Example 70]", "log10(IC50)": 2.00}
{"compound": "CC(C)(C)COC(=O)N[C@@H](CNC(=O)c1ccc(OCCNc2ncccn2)cc1O)C(=O)O [Example 53]", "log10(IC50)": 1.53}
{"compound": "CCOC(=O)CC(NC(=O)c1ccc(OCCNc2ncccn2)cc1O)c1ccccc1 (stereo not shown) [Example 288]", "log10(IC50)": -2.52}
{"compound": "CC(C)(C)COC(=O)N[C@@H](CNC(=O)c1ccc(OCCNC(=O)NCc2ccncc2)cc1O)C(=O)O [Example 257]", "log10(IC50)": 0.10}
{"compound": "CCOC(=O)N[C@@H](CNC(=O)c1ccc(OCCNC(=O)NCc2ccccc2)cc1O)C(=O)O [Example 222]", "log10(IC50)": 1.32}
{"compound": "O=C(O)CC(NC(=O)c1ccc(OCCNc2ncccn2)cc1O)c1cccnc1 (stereo not shown) [Example 286]", "log10(IC50)": 0.45}
{"compound": "CC(C)OC(=O)N[C@@H](CNC(=O)c1ccc(OCCNC(=O)NCc2ccccc2)cc1O)C(=O)O [Example 224]", "log10(IC50)": 0.61}
{"compound": "CCCOC(=O)N[C@@H](CNC(=O)c1ccc(OCCNC(=O)NCc2cccnc2)cc1O)C(=O)O [Example 236]", "log10(IC50)": 0.28}
{"compound": "CCOC(=O)CC(NC(=O)c1ccc(OCCNC2=NCCCN2)cc1O)c1ccccc1 (stereo not shown) [Example 292, hydrochloride]", "log10(IC50)": -0.94}
{"compound": "N=C(N)NCCOc1ccc(C(=O)NC[C@H](NC(=O)Nc2ccccc2Cl)C(=O)O)c(O)c1 [Example 175]", "log10(IC50)": 0.58}
{"compound": "C=CCOC(=O)N[C@@H](CNC(=O)c1ccc(OCCNC(=N)N)cc1O)C(=O)O [Example 162]", "log10(IC50)": 0.04}
{"compound": "O=C(Nc1ccccc1-c1ccccc1)N[C@@H](CNC(=O)c1ccc(OCCNC2=NCCCN2)cc1O)C(=O)O [Example 29]", "log10(IC50)": -0.39}
{"compound": "C=CCCOC(=O)N[C@@H](CNC(=O)c1ccc(OCCNC2=NCCCN2)cc1O)C(=O)O [Example 7]", "log10(IC50)": -1.04}
{"compound": "CC(C)OC(=O)N[C@@H](CNC(=O)c1ccc(OCCNC(=O)NCc2cccnc2)cc1O)C(=O)O [Example 237]", "log10(IC50)": 0.43}
{"compound": "O=C(NCCOc1ccc(C(=O)NC[C@H](NC(=O)OCC(Cl)(Cl)Cl)C(=O)O)c(O)c1)NCc1ccccc1 [Example 230]", "log10(IC50)": 0.60}
{"compound": "CCCCCCOC(=O)N[C@@H](CNC(=O)c1ccc(OCCNC(=O)NCc2ccncc2)cc1O)C(=O)O [Example 255]", "log10(IC50)": 0.73}
{"compound": "CC(C)OC(=O)N[C@@H](CNC(=O)c1ccc(OCCNC(=N)N)cc1O)C(=O)O [Example 161]", "log10(IC50)": -0.05}
{"compound": "Cc1ccccc1CNC(=O)NCCOc1ccc(C(=O)NC[C@H](NC(=O)OCc2ccccc2)C(=O)O)c(O)c1 [Example 268]", "log10(IC50)": 1.52}

###

- target: Vitronectin receptor αVβ3 (Homo sapiens, UniProt P05106+P06756)
- test_summary: Vitronectin Receptor αVβ3 Binding Assay
- experimental_parameters: read-out: VnR (IC50μM)

{"molecule": "N=C(N)NCCOc1ccc(C(=O)NC[C@H](NC(=O)c2ccc(Cl)cc2)C(=O)O)c(O)c1 [Example 206]", "result_modifier": ">", "IC50, µM": 1}
{"molecule": "O=C(Cc1ccccc1)N[C@@H](CNC(=O)c1ccc(OCCNC2=NCCN2)cc1O)C(=O)O [Example 127]", "result_modifier": "=", "IC50, µM": 0.955}
{"molecule": "C=CCCOC(=O)N[C@@H](CNC(=O)c1ccc(OCCNC2=NCCN2)cc1O)C(=O)O [Example 102]", "result_modifier": "=", "IC50, µM": 0.069}
{"molecule": "Cc1ccc(C(=O)N[C@@H](CNC(=O)c2ccc(OCCNC3=NCCN3)cc2O)C(=O)O)cc1 [Example 135]", "result_modifier": ">", "IC50, µM": 1}
{"molecule": "N=C(N)NCCOc1ccc(C(=O)NC[C@H](NC(=O)c2ccncc2)C(=O)O)c(O)c1 [Example 210]", "result_modifier": ">", "IC50, µM": 1}
{"molecule": "COc1ccccc1C(=O)N[C@@H](CNC(=O)c1ccc(OCCNC2=NCCN2)cc1O)C(=O)O [Example 133]", "result_modifier": ">", "IC50, µM": 1}
{"molecule": "CCOC(=O)N[C@@H](CNC(=O)c1ccc(OCCNC(=O)NCc2cccnc2)cc1O)C(=O)O [Example 235]", "result_modifier": "=", "IC50, µM": 3}
{"molecule": "N=C(N)NCCOc1ccc(C(=O)NC[C@H](NC(=O)c2ccccc2Cl)C(=O)O)c(O)c1 [Example 203]", "result_modifier": "=", "IC50, µM": 14.1}

###

molecules and their reported IC50
- target: Vitronectin receptor αVβ3 (Homo sapiens, UniProt P05106+P06756)
- test_summary: Vitronectin Receptor αVβ3 Binding Assay
- experimental_parameters: read-out: VnR (IC50μM)
Counter-ions that a name gives are not always drawn.

{"molecule": "CCCCC(=O)N[C@@H](CNC(=O)c1ccc(OCCNC(=N)N)cc1O)C(=O)O", "result_modifier": ">", "IC50 (µM)": 1}
{"molecule": "C=CCOC(=O)N[C@@H](CNC(=O)c1ccc(OCCNC2=NCCN2)cc1O)C(=O)O", "result_modifier": "=", "IC50 (µM)": 0.094}
{"molecule": "C=CCOC(=O)N[C@@H](CNC(=O)c1ccc(OCCNC2=NCCCN2)cc1O)C(=O)O", "result_modifier": "=", "IC50 (µM)": 0.108}
{"molecule": "O=C(N[C@@H](CNC(=O)c1ccc(OCCNC2=NCCCN2)cc1O)C(=O)O)OCC(Cl)(Cl)Cl", "result_modifier": "=", "IC50 (µM)": 0.061}
{"molecule": "O=C(O)CC(NC(=O)c1ccc(OCCNC2=NCCCN2)cc1O)c1ccccc1 (stereo not shown)", "result_modifier": "=", "IC50 (µM)": 0.44}
{"molecule": "O=C(Nc1ccccc1-c1ccccc1)N[C@@H](CNC(=O)c1ccc(OCCNc2ncccn2)cc1O)C(=O)O", "result_modifier": ">", "IC50 (µM)": 1}
{"molecule": "CC(=O)c1ccc(NC(=O)N[C@@H](CNC(=O)c2ccc(OCCNC(=N)N)cc2O)C(=O)O)cc1", "result_modifier": "=", "IC50 (µM)": 40.9}
{"molecule": "Cc1ccccc1NC(=O)N[C@@H](CNC(=O)c1ccc(OCCNc2ncccn2)cc1O)C(=O)O", "result_modifier": ">", "IC50 (µM)": 1}
{"molecule": "O=C(N[C@@H](CNC(=O)c1ccc(OCCNC2=NCCCCC2)cc1O)C(=O)O)OCc1ccccc1", "result_modifier": "=", "IC50 (µM)": 4.79}
{"molecule": "C=CCCOC(=O)N[C@@H](CNC(=O)c1ccc(OCCNC(=N)N)cc1O)C(=O)O", "result_modifier": "=", "IC50 (µM)": 1.1}
{"molecule": "CCOC(=O)N[C@@H](CNC(=O)c1ccc(OCCNc2ncccn2)cc1O)C(=O)O", "result_modifier": "=", "IC50 (µM)": 100}
{"molecule": "CC(C)(C)COC(=O)N[C@@H](CNC(=O)c1ccc(OCCNC(=N)N)cc1O)C(=O)O", "result_modifier": "=", "IC50 (µM)": 0.25}
{"molecule": "CCOC(=O)N[C@@H](CNC(=O)c1ccc(OCCNC2=NCCCN2)cc1O)C(=O)O", "result_modifier": "=", "IC50 (µM)": 0.123}
{"molecule": "O=C(O)CC(NC(=O)c1ccc(OCCNc2ncccn2)cc1O)c1ccccc1 (stereo not shown) [Example 287, hydrochloride]", "result_modifier": "=", "IC50 (µM)": 0.26}
{"molecule": "O=C(NC1CCCCC1)N[C@@H](CNC(=O)c1ccc(OCCNC2=NCCCN2)cc1O)C(=O)O", "result_modifier": "=", "IC50 (µM)": 1.52}
{"molecule": "C#CCCC(=O)N[C@@H](CNC(=O)c1ccc(OCCNC(=N)N)cc1O)C(=O)O", "result_modifier": ">", "IC50 (µM)": 1}
{"molecule": "COC(=O)N[C@@H](CNC(=O)c1ccc(OCCNC(=O)NCc2ccccc2)cc1O)C(=O)O", "result_modifier": "=", "IC50 (µM)": 22.8}
{"molecule": "C#CCOC(=O)N[C@@H](CNC(=O)c1ccc(OCCNC2=NCCN2)cc1O)C(=O)O", "result_modifier": "=", "IC50 (µM)": 0.21}
{"molecule": "C=CCCOC(=O)N[C@@H](CNC(=O)c1ccc(OCCNC(=O)NCc2cccnc2)cc1O)C(=O)O", "result_modifier": "=", "IC50 (µM)": 2.1}
{"molecule": "O=C(NC1CCCCC1)N[C@@H](CNC(=O)c1ccc(OCCNC2=NCCN2)cc1O)C(=O)O", "result_modifier": "=", "IC50 (µM)": 1.09}
{"molecule": "O=C(NCCOc1ccc(C(=O)NC[C@H](NC(=O)OCC(Cl)(Cl)Cl)C(=O)O)c(O)c1)NCc1cccnc1", "result_modifier": "=", "IC50 (µM)": 1.6}
{"molecule": "Cc1ccc(NC(=O)N[C@@H](CNC(=O)c2ccc(OCCNC(=N)N)cc2O)C(=O)O)cc1", "result_modifier": "=", "IC50 (µM)": 3.13}
{"molecule": "COC(=O)N[C@@H](CNC(=O)c1ccc(OCCNC(=O)NCc2cccnc2)cc1O)C(=O)O", "result_modifier": "=", "IC50 (µM)": 8.7}
{"molecule": "COc1ccccc1NC(=O)N[C@@H](CNC(=O)c1ccc(OCCNC(=N)N)cc1O)C(=O)O", "result_modifier": "=", "IC50 (µM)": 3.89}
{"molecule": "CC(C)(C)COC(=O)N[C@@H](CNC(=O)c1ccc(OCCNC2=NCCN2)cc1O)C(=O)O", "result_modifier": "=", "IC50 (µM)": 0.105}
{"molecule": "N=C(N)NCCOc1ccc(C(=O)NC[C@H](NC(=O)Nc2cccc3ccccc23)C(=O)O)c(O)c1", "result_modifier": "=", "IC50 (µM)": 17.9}
{"molecule": "CCCCOC(=O)N[C@@H](CNC(=O)c1ccc(OCCNC(=N)N)cc1O)C(=O)O", "result_modifier": "=", "IC50 (µM)": 0.61}
{"molecule": "N=C(N)NCCOc1ccc(C(=O)NC[C@H](NC(=O)NCc2ccccc2)C(=O)O)c(O)c1", "result_modifier": "=", "IC50 (µM)": 4.57}
{"molecule": "Cc1ccc(C(=O)N[C@@H](CNC(=O)c2ccc(OCCNC(=N)N)cc2O)C(=O)O)cc1", "result_modifier": ">", "IC50 (µM)": 1}
{"molecule": "Cc1cc(C(=O)N[C@@H](CNC(=O)c2ccc(OCCNC(=N)N)cc2O)C(=O)O)c(C)o1", "result_modifier": ">", "IC50 (µM)": 1}
{"molecule": "CCCCCCOC(=O)N[C@@H](CNC(=O)c1ccc(OCCNC2=NCCN2)cc1O)C(=O)O", "result_modifier": "=", "IC50 (µM)": 0.086}
